Source of measurements: patent US7544694B2

Molecular target: NK2 (Homo sapiens)
Sequence (P21452 whole entry): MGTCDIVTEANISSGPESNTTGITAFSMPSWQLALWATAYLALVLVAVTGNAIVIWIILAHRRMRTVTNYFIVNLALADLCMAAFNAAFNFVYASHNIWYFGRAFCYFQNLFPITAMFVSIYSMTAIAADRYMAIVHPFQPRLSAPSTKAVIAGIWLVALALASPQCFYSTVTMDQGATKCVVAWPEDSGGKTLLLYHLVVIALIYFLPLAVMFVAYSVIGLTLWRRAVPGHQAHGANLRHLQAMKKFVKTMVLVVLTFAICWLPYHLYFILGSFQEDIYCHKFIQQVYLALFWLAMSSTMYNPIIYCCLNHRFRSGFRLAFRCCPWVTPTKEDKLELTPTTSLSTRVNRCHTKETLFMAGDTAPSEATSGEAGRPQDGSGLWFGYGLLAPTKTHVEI
Test: Signal transduction (ST), intracellular Ca++ (FLIPR), NK2
Assay type: cell-based
Conditions: antagonist, read-out: NK2 pIC50 (converted)
Reported IC50 values for the following compounds.
test-readout: IC50 (µM)

* O=C(c1cc(C(F)(F)F)cc(C(F)(F)F)c1)N1CCC(N2CCC3(CC2)CCN(S(=O)(=O)c2cccs2)CC3)CC1Cc1ccccc1 (stereo not shown) | 1.32
* O=C(C1CC1)N1CCC2(CC1)CCN([C@H]1CCN(C(=O)c3cc(C(F)(F)F)cc(C(F)(F)F)c3)[C@H](Cc3ccc(F)c(F)c3)C1)CC2 | 2
* O=C(C1CCOC1)N1CCC2(CC1)CCN([C@H]1CCN(C(=O)c3cc(C(F)(F)F)cc(C(F)(F)F)c3)[C@H](Cc3ccccc3)C1)CC2 (stereo partly shown) | 2.34
* Cc1ccc(C(=O)N2CCC3(CC2)CCN([C@H]2CCN(C(=O)c4cc(C(F)(F)F)cc(C(F)(F)F)c4)[C@H](Cc4ccccc4)C2)CC3)s1 | 7.94
* O=C(c1ccccn1)N1CCC2(CC1)CCN([C@H]1CCN(C(=O)c3cc(C(F)(F)F)cc(C(F)(F)F)c3)[C@H](Cc3ccccc3)C1)CC2 | 3.98
* O=C(c1ccc(=O)oc1)N1CCC2(CC1)CCN([C@H]1CCN(C(=O)c3cc(C(F)(F)F)cc(C(F)(F)F)c3)[C@H](Cc3ccccc3)C1)CC2 | 6.31
* O=C1CC2(CCN1Cc1ccccc1F)CCN([C@H]1CCN(C(=O)c3cc(C(F)(F)F)cc(C(F)(F)F)c3)[C@H](Cc3ccccc3)C1)CC2 | 4.57
* O=C(c1cc(C(F)(F)F)cc(C(F)(F)F)c1)N1CC[C@H](N2CCC3(CC2)CCN(S(=O)(=O)C(F)(F)F)CC3)C[C@H]1Cc1ccccc1 | 1.38
* N#Cc1ccc(S(=O)(=O)N2CCC3(CCN(C4CCN(C(=O)c5cc(C(F)(F)F)cc(C(F)(F)F)c5)C(Cc5ccccc5)C4)CC3)CC2)cc1 (stereo not shown) | 1.07
* Cc1noc(C)c1CN1CCC2(CCN([C@H]3CCN(C(=O)c4cc(C(F)(F)F)cc(C(F)(F)F)c4)[C@H](Cc4ccccc4)C3)CC2)CC1=O | 1.45
* O=C(c1ccc[nH]c1=O)N1CCC2(CC1)CCN([C@H]1CCN(C(=O)c3cc(C(F)(F)F)cc(C(F)(F)F)c3)[C@H](Cc3ccccc3)C1)CC2 | 3.98
